Some compounds, each annotated with its measured clearance.
# EXPERIMENT_SUMMARY: Pharmacokinetic evaluation in SD rats
# Type: in vivo
# CONDITIONS: male, rat, plasma, 2 mg/kg, intravenous injection 2 mpk, 10% aqueous HPβCD, read-out: Clearance rate for administration by intravenous injection
Where a name gives a salt, the structure may show the parent alone.
Note: unit mL/min/kg is implicit; provide only the numeric part.

>>> readout_value("CN(CCCn1nnc2cc(CNC[C@H](O)c3ccc(O)c4[nH]c(=O)ccc34)c3c(c21)CCC3)[C@H]1CC[C@H](OC(=O)C(O)(c2cccs2)c2cccs2)CC1 [Trifluoroacetate salt of compound 1]")
62.8

// next item, clearance requested
Please look up its clearance: CN(CCCn1nnc2cc(CNC[C@H](O)c3ccc(O)c4[nH]c(=O)ccc34)ccc21)[C@H]1CC[C@H](OC(=O)C(O)(c2cccs2)c2cccs2)CC1 [Hydrofluoride salt of AZD8871, reference compound]
35
